Particulars: PAMPA, 30 min, 50 μM
Consider the following compounds; for each one, report its PABL 0 mM NaTC.
Give the figure only, with no unit attached.

Per the records, this compound ( Clc1ccccc1C(c1ccccc1)(c1ccccc1)n1ccnc1 ) has PABL 0 mM NaTC equal to 2400

Per the records, this compound ( Cc1cccc(Nc2ccccc2C(=O)O)c1C ) has PABL 0 mM NaTC equal to 782

Per the records, this compound ( OCCN(CCO)c1nc(N2CCCCC2)c2nc(N(CCO)CCO)nc(N3CCCCC3)c2n1 ) has PABL 0 mM NaTC equal to 941

Per the records, this compound ( CCCCN(CCCC)CCCOC(=O)c1ccc(N)cc1 ) has PABL 0 mM NaTC equal to 713

Per the records, this compound ( COc1ccc(CCN2CCC(Nc3nc4ccccc4n3Cc3ccc(F)cc3)CC2)cc1 ) has PABL 0 mM NaTC equal to 1080

====

Test name: equilibrium solubility-pH, direct-UV microtitre plate (μSOL Evolution) with and without excipients
Particulars: aqueous universal buffer (pION), saturated drug suspension, pKa^APP ± SD, apparent ionization constant; excipient […] NMP
Consider the following molecules; for each one, report its pKa at 18 h.
Give the figure only, with no unit attached.

Per the records, this molecule ( CCCCN(CCCC)CCCOC(=O)c1ccc(N)cc1 ) has pKa at 18 h equal to 8.8

Per the records, this molecule ( Cc1cccc(Nc2ccccc2C(=O)O)c1C ) has pKa at 18 h equal to 4.1

Per the records, this molecule ( OCCN(CCO)c1nc(N2CCCCC2)c2nc(N(CCO)CCO)nc(N3CCCCC3)c2n1 ) has pKa at 18 h equal to 5.8

====

Test name: equilibrium solubility-pH, direct-UV microtitre plate (μSOL Evolution) with and without excipients
Particulars: aqueous universal buffer (pION), saturated drug suspension, pKa^APP ± SD, apparent ionization constant; excipient […] HP-b-CD
Attribute measured: pKa at 18 h

Per the records, this molecule ( CCCCN(CCCC)CCCOC(=O)c1ccc(N)cc1 [butacaine] ) has pKa at 18 h equal to 8.5

Per the records, this molecule ( Cc1cccc(Nc2ccccc2C(=O)O)c1C [mefenamic acid] ) has pKa at 18 h equal to 4.6

Per the records, this molecule ( OCCN(CCO)c1nc(N2CCCCC2)c2nc(N(CCO)CCO)nc(N3CCCCC3)c2n1 [dipyridamole] ) has pKa at 18 h equal to 5.8

====

Test name: physchem
Particulars: negative shift in the apparent pKa
Attribute measured: pKa at 18 h

Per the records, this molecule ( COc1ccc(Cl)cc1C(=O)NCCc1ccc(S(=O)(=O)NC(=O)NC2CCCCC2)cc1 [glybenclamide] ) has pKa at 18 h equal to 1.6

====

Consider the following compounds; for each one, report its pKa at 18 h.
Test name: equilibrium solubility-pH, direct-UV microtitre plate (μSOL Evolution) with and without excipients
Particulars: aqueous universal buffer (pION), saturated drug suspension, pKa^APP ± SD, apparent ionization constant; excipient 1% PEG400
Give the figure only, with no unit attached.

Per the records, this compound ( OCCN(CCO)c1nc(N2CCCCC2)c2nc(N(CCO)CCO)nc(N3CCCCC3)c2n1 ) has pKa at 18 h equal to 5.9

Per the records, this compound ( Cc1cccc(Nc2ccccc2C(=O)O)c1C ) has pKa at 18 h equal to 4.5

Per the records, this compound ( CCCCN(CCCC)CCCOC(=O)c1ccc(N)cc1 ) has pKa at 18 h equal to 8.5
